system: Fibroblast; test: Multiplex assay against human fibroblast; type: toxicity, cell-based; conditions: 24 h, 1 µM, compound concentration 1 uM, replicate 1
MEASURE_NAME: Total Cell Count
The answer should be written as a number, with no unit following it.

>>> value_reported("O=C(NCCO)c1cccc(-c2cc(Nc3ccc(OC(F)(F)F)cc3)ncn2)c1")
135
>>> value_reported("CCOc1c2c(c(OCC)c3ncccc13)CN(c1ccc(CS(=O)(=O)NC(=O)Cc3ccccc3OC)cc1C)C2=O")
127
>>> value_reported("Cc1ccc(F)cc1C(=O)Nc1ccc(C(=O)N2Cc3cccn3Cc3ccccc32)c(Cl)c1")
172
>>> value_reported("Oc1c(CN2CCN(c3ccccn3)CC2)cc(Cl)c2cccnc12")
174
>>> value_reported("Cl.Clc1ccc2nsnc2c1NC1=NCCN1 [TIZANIDINE HYDROCHLORIDE]")
146
>>> value_reported("C[C@H](NC(=O)c1c(C(F)F)nn(C)c1Oc1cccc(C(F)(F)F)c1)c1ccc(C(=O)O)cc1")
178

input: Provide only the value of recorded Total Cell Count for O=C(NCC(=O)N1CC[C@H](N[C@H]2CC[C@@](O)(c3ccc(-c4ncccn4)cn3)CC2)C1)c1cccc(C(F)(F)F)c1
output: 139
